Test system: CCRF-CEM
Test protocol: CCK-8 tumor cell proliferation, CCRF-CEM
Assay type: cell-based, Human
Experimental conditions: Homo sapiens, CCRF-CEM; Table 8, designed based on ER inhibitors; 96 h; read-out: IC50 for inhibiting the proliferation of tumor cells, CCRF-CEM
Measurement type: IC50

Please give the measured IC50 for this molecule: CC/C(=C(/c1ccc(O)cc1)c1ccc(OCCN)cc1)c1ccc(O)cc1 [GT-03308, reference compound]
> 10 µM

----------
Test system: MDA-MB-231
Test protocol: CCK-8 tumor cell proliferation, MDA-MB-231
Format: cell-based, Human
Experimental conditions: Homo sapiens; Table 18, FAK inhibitor based; MDA-MB-231; read-out: IC50 inhibiting proliferation of tumor cells, MDA-MB-231
pIC50: −log10 of the molar value.
Measurement type: pIC50

Molecule: CNC(=O)c1ccccc1Nc1cc(Nc2ccc(N3CCC(N4CCN(Cc5ccc6c(c5F)CN(C5CCC(=O)NC5=O)C6=O)CC4)CC3)cc2OC)ncc1C(F)(F)F (stereo not drawn) [GT-03595]
pIC50: 6.30 to 7.00
--
Molecule: CS(=O)(=O)c1cccc(CNc2nc(Nc3ccc(N4CCN(Cc5ccc6c(c5)CN(C5CCC(=O)NC5=O)C6=O)CC4)cc3)ncc2C(F)(F)F)c1 (stereo not drawn) [GT-03792]
pIC50: > 7.30
--
Molecule: CN(Cc1ccc2c(c1)CN(C1CCC(=O)NC1=O)C2=O)C1CCN(c2ccc(Nc3ncc(C(F)(F)F)c(NCc4nccnc4N(C)S(C)(=O)=O)n3)cc2)CC1 (stereo not drawn) [GT-03705]
pIC50: > 7.30
--
Molecule: CNC(=O)c1ccccc1Nc1cc(Nc2ccc(N3CCOCC3)cc2OC)ncc1C(F)(F)F [PND-1186, reference compound]
pIC50: 5.30 to 6.00

Quick batch: pIC50 for everything below.
1. CNC(=O)c1ccccc1Nc1cc(Nc2ccc(N3CCC(N4CCN(Cc5ccc6c(c5)CN(C5CCC(=O)NC5=O)C6=O)CC4)CC3)cc2OC)ncc1C(F)(F)F (stereo not drawn) [GT-03266]
2. CN(Cc1ccc2c(c1)CN(C1CCC(=O)NC1=O)C2=O)C1CCN(c2ccc(Nc3ncc(C(F)(F)F)c(NCc4cccc(N(C)S(C)(=O)=O)c4)n3)cc2)CC1 (stereo not drawn) [GT-03677]

1. 6.30 to 7.00
2. > 7.30
